molecular target: Extracellular calcium-sensing receptor (Mus musculus); assay: Antagonist activity at mouse CaSR
Sequence (Q9QY96 whole entry): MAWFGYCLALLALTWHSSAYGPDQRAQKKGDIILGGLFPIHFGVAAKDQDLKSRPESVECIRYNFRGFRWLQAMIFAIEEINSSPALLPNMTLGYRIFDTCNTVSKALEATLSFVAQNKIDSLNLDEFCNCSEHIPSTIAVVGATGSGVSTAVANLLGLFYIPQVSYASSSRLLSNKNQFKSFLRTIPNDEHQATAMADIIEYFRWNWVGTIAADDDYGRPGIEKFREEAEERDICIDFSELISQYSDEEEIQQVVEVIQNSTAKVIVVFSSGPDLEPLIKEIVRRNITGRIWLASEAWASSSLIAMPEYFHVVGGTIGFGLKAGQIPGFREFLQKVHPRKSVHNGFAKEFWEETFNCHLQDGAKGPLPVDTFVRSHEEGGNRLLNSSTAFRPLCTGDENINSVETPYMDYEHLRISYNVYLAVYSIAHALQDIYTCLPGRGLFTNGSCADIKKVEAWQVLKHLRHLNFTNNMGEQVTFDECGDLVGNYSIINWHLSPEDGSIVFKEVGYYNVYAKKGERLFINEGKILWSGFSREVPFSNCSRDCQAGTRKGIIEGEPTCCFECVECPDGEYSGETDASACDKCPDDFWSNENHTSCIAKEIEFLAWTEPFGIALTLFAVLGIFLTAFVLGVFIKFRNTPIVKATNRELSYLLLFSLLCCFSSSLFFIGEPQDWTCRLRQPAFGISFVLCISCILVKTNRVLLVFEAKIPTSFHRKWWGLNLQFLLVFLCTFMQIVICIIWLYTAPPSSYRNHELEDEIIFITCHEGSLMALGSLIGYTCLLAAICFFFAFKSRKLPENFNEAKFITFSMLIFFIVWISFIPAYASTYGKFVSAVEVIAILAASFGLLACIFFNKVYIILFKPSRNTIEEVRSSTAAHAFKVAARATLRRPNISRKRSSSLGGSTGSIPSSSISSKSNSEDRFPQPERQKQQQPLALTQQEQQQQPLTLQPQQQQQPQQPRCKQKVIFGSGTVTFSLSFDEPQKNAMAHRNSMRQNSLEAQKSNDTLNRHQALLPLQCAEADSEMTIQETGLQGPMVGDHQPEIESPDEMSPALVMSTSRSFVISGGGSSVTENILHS
readout type: pIC50
Please keep in mind that pIC50 is minus log10 of the molar concentration; only the number is needed.

Per the record, "Cc1ccc(-c2c(C)nc(-c3cccc(F)c3O)n(CCc3ccccc3)c2=O)s1" has pIC50 of 7.29

----------
Biological target: Extracellular calcium-sensing receptor (Homo sapiens)
Sequence (P41180 whole entry): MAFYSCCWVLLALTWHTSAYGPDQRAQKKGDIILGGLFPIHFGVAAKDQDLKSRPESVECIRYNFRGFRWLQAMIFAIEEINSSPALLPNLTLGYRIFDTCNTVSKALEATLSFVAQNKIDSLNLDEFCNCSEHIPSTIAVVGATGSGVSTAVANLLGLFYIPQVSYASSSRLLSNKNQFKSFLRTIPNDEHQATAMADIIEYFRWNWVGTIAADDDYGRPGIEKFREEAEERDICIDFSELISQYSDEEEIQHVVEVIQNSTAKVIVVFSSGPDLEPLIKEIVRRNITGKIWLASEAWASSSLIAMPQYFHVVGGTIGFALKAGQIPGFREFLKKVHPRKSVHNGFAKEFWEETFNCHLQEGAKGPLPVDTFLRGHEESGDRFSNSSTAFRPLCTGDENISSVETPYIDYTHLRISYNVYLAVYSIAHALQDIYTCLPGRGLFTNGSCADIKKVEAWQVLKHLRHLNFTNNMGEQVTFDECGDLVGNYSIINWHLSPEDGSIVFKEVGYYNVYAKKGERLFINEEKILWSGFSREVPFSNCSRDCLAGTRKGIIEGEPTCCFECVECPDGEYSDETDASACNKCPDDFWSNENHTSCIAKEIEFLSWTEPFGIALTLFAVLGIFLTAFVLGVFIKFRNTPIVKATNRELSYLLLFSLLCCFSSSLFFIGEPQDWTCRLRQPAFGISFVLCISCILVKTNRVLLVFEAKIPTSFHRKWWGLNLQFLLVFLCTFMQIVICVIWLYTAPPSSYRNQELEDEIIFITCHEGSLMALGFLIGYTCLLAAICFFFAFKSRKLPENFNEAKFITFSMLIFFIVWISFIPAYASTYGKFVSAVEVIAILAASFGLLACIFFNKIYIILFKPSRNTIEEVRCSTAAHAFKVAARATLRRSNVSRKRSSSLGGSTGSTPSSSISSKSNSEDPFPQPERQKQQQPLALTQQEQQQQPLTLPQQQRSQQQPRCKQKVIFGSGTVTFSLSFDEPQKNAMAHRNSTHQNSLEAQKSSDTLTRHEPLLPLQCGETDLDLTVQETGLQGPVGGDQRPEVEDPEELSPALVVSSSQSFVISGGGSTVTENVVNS
Assay: Antagonist activity at human CaSR in human HEK293 cells measured after 5 mins by FLIPR assay
pIC50: −log10 of the molar value.
readout type: pIC50

The recorded pIC50 with Extracellular calcium-sensing receptor (Homo sapiens) for "Cc1nc(-c2cccc(F)c2O)n(CCc2ccccc2)c(=O)c1-c1ccc(CO)s1" was < 5.00
